testedSystem: Muscarinic acetylcholine receptor M2 (Homo sapiens, UniProt P08172)
Sequence (P08172 whole entry): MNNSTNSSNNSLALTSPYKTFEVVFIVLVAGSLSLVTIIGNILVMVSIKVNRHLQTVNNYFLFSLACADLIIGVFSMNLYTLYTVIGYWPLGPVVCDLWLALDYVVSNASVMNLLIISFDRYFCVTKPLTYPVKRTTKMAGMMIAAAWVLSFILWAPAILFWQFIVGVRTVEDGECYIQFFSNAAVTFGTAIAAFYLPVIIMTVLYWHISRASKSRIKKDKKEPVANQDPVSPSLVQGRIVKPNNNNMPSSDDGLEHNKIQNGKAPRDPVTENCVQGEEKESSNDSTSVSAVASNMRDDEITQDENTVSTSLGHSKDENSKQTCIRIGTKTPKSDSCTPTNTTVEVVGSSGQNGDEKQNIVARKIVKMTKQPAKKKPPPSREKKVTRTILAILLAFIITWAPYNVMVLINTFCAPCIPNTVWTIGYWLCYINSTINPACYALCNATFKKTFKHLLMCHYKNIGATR
assayText: Antagonist activity at human recombinant muscarinic M2 receptor expressed in CHO cells co-transfected with Gqi5 in presence of EC80 acetylcholine by calcium mobilization assay
readoutLabel: IC50 (nM)

smilesInput | unitsText | resultValue
C[C@H]1CCCCN1c1ccc(N2CCN(S(=O)(=O)c3ccccc3Cl)CC2)nn1 | nM | 1200
Cc1noc(C)c1S(=O)(=O)N1CCN(c2ccc(N3CCCC(C)(C)C3)nn2)CC1 | nM | 352

====

testedSystem: Muscarinic acetylcholine receptor M2 (Rattus norvegicus, UniProt P10980)
Sequence (P10980 whole entry): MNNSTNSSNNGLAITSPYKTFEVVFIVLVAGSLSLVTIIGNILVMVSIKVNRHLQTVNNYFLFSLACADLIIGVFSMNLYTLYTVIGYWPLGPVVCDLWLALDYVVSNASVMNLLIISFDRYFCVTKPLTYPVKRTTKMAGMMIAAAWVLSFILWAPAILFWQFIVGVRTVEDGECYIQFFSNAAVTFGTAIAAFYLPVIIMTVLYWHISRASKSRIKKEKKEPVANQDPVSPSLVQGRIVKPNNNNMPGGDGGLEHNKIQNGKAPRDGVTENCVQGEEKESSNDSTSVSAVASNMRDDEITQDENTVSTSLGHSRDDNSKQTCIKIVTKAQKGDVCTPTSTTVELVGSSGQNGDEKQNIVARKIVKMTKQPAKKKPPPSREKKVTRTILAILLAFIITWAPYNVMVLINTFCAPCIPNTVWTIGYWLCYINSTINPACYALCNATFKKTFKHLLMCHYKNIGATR
assayText: Antagonist activity at rat muscarinic M2 receptor by calcium mobilization assay
pIC50: −log10 of the molar value.

smilesInput | pIC50
C[C@H]1CCCCN1c1ccc(N2CCN(S(=O)(=O)c3ccccc3Cl)CC2)nn1 | 5.23

====

testedSystem: Muscarinic acetylcholine receptor M4 (Rattus norvegicus)
Sequence (P08485 whole entry): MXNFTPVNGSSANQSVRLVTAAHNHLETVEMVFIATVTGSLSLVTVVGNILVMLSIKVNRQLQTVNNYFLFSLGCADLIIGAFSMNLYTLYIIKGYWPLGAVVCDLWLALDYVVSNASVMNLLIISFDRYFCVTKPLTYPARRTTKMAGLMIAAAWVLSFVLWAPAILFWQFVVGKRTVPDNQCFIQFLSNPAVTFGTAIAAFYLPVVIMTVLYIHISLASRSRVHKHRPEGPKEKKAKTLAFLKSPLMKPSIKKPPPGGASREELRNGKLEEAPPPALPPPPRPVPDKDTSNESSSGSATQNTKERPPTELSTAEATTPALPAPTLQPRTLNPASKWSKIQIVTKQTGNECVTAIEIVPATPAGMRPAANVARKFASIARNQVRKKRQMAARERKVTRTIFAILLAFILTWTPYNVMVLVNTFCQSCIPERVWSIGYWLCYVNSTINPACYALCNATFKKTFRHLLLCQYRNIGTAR
assayText: Antagonist activity at rat muscarinic M4 receptor by calcium mobilization assay
pIC50: −log10 of the molar value.

smilesInput | pIC50
C[C@H]1CCCCN1c1ccc(N2CCN(S(=O)(=O)c3ccccc3Cl)CC2)nn1 | 6.00

====

testedSystem: Muscarinic acetylcholine receptor M4 (Homo sapiens, UniProt P08173)
Sequence (P08173 whole entry): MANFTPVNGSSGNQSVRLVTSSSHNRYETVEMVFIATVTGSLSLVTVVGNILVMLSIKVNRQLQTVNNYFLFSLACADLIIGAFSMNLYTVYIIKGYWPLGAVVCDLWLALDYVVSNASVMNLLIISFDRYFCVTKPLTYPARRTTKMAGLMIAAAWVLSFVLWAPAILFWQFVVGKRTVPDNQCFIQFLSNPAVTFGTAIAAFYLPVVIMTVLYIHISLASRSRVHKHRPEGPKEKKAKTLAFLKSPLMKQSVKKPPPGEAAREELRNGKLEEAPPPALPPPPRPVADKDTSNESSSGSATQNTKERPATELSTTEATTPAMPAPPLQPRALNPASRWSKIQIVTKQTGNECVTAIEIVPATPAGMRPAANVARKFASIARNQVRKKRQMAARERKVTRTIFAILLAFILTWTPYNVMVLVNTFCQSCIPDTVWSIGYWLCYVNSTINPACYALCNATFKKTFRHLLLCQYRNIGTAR
assayText: Antagonist activity at human recombinant muscarinic M4 receptor expressed in CHO cells co-transfected with Gqi5 in presence of EC80 acetylcholine by calcium mobilization assay
Type: functional, cell-based
testSettings: read-out: IC50
pIC50: −log10 of the molar value.
// pIC50 lookup, one value per entry

compound | qualifyingSign | pIC50
COc1ccccc1S(=O)(=O)N1CCN(c2ccc(N3CCCC[C@@H]3C)nn2)CC1 | = | 5.62
C[C@H]1CCCN1c1ccc(N2CCN(S(=O)(=O)c3ccccc3Cl)CC2)nn1 | = | 5.54
C[C@H]1CCCCN1c1cnc(N2CCN(S(=O)(=O)c3ccc4c(c3)OCO4)CC2)cn1 | < | 5.00
O=S(=O)(c1ccccc1Cl)N1CCN(c2ccc(N3CCCCCC3)nn2)CC1 | = | 5.90
CC1(C)CCCN(c2ccc(N3CCN(S(=O)(=O)c4ccc5c(c4)OCO5)CC3)nn2)C1 | = | 6.33
CC1(C)CCCN(c2ccc(N3CCN(S(=O)(=O)c4ccccc4Cl)CC3)nn2)C1 | = | 6.03
C[C@H]1CCCCN1c1ccc(N2CCN(S(=O)(=O)c3ccc4ncccc4c3)CC2)nn1 | = | 5.93
C[C@@H]1CCCCN1c1ccc(N2CCN(S(=O)(=O)c3ccccc3Cl)CC2)nn1 | = | 5.22
CC1CCCCN1c1ccc(N2CCN(S(=O)(=O)c3ccccc3Cl)CC2)nn1 (racemic) | = | 6.28

Data provenance: ChEMBL document CHEMBL4052689
